Please go through the items and note down their CC50 at 24 h.
- run-description: MTT cell viability (cytotoxicity) on normal human primary fibroblast C3PV
- Format: cell-based

Query: Return the recorded CC50 at 24 h value; entry: C[C@H]1[C@@H](OCCCCO[C@H]2O[C@@H]3O[C@@]4(C)CC[C@H]5[C@H](C)CC[C@@H]([C@H]2C)[C@@]35OO4)O[C@@H]2O[C@@]3(C)CC[C@H]4[C@H](C)CC[C@@H]1[C@@]24OO3 [19‐β,β]
Reply: 5.7 µM

Query: Return the recorded CC50 at 24 h value; entry: CC1CCC2C(C)C(OC(=O)CCC(=O)OCc3ccc(OC(=O)CCC(=O)OC4OC5OC6(C)CCC7C(C)CCC(C4C)C57OO6)cc3)OC3OC4(C)CCC1C32OO4 (stereo not drawn) [Compound 22‐α,α]
Reply: > 300 µM

Query: Return the recorded CC50 at 24 h value; entry: CC1CCC2C(C)C(OC(=O)CCC(=O)NCCc3ccc(OC(=O)CCC(=O)OC4OC5OC6(C)CCC7C(C)CCC(C4C)C57OO6)cc3)OC3OC4(C)CCC1C32OO4 (stereo not drawn) [20‐α,α]
Reply: 228 µM

Query: Return the recorded CC50 at 24 h value; entry: C[C@H]1[C@H](OC(=O)CCC(=O)NCCc2ccc(O)cc2)O[C@@H]2O[C@@]3(C)CC[C@H]4[C@H](C)CC[C@@H]1[C@@]24OO3 [13‐α]
Reply: 3.39 µM

Query: Return the recorded CC50 at 24 h value; entry: CC(=O)O[C@H]1C(=O)[C@@]2(C)[C@H]([C@H](OC(=O)c3ccccc3)[C@]3(O)C[C@H](OC(=O)[C@H](O)[C@@H](NC(=O)c4ccccc4)c4ccccc4)C(C)=C1C3(C)C)[C@]1(OC(C)=O)CO[C@@H]1C[C@@H]2O [Paclitaxel, paclitaxel, reference compound]
Reply: 78.9 µM

Below is a list of compounds. For each, state its recorded CC50 at 24 h.
1. C[C@H]1[C@H](OC(=O)CCC(=O)Oc2ccc(CO)cc2)O[C@@H]2O[C@@]3(C)CC[C@H]4[C@H](C)CC[C@@H]1[C@@]24OO3 [15‐α]
2. C[C@H]1[C@H](OC(=O)c2ccccc2C(=O)O[C@@H]2O[C@@H]3O[C@@]4(C)CC[C@H]5[C@H](C)CC[C@@H]([C@H]2C)[C@@]35OO4)O[C@@H]2O[C@@]3(C)CC[C@H]4[C@H](C)CC[C@@H]1[C@@]24OO3 [18‐α,α]
3. COC(=O)C(Cc1ccc(O)cc1)NC(=O)CCC(=O)O[C@@H]1O[C@@H]2O[C@@]3(C)CC[C@H]4[C@H](C)CC[C@@H]([C@H]1C)[C@@]24OO3 (stereo partly drawn) [14‐α]
4. CC1CCC2C(C)C(OCCc3ccc(O)cc3)OC3OC4(C)CCC1C32OO4 (stereo not drawn) [12‐β]
5. C[C@H]1[C@H](OC(=O)c2ccccc2C(=O)O)O[C@@H]2O[C@@]3(C)CC[C@H]4[C@H](C)CC[C@@H]1[C@@]24OO3 [16‐α]
6. C[C@H]1[C@@H](O)O[C@@H]2O[C@@]3(C)CC[C@H]4[C@H](C)CC[C@@H]1[C@@]24OO3 [Compound 2, dihydroartemisinin]
7. CC1CCC2C(C)C(Oc3ccc(CCO)cc3)OC3OC4(C)CCC1C32OO4 (stereo not drawn) [7‐β]

Reply:
["55.2 µM", "8 µM", "6.38 µM", "38.1 µM", "8.14 µM", "0.68 µM", "1.14 µM"]

Query: Return the recorded CC50 at 24 h value; entry: COC(=O)C(Cc1ccc(OC(=O)CCC(=O)OC2OC3OC4(C)CCC5C(C)CCC(C2C)C35OO4)cc1)NC(=O)CCC(=O)OC1OC2OC3(C)CCC4C(C)CCC(C1C)C24OO3 (stereo not drawn) [21‐α,α]
Reply: > 300 µM
